# credit: the supplement of paper PMC3545927

target: furin, P09958; assay: furin cleavage Z-score vs untreated control; higher = more cleavage, active = 3.5 or more, inactive = 1 or less, 8 variable residues between constant flanks; conditions: 15 min;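 also: purified furin at 1:10 enzyme:substrate in 50 mM HEPES pH 7.5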
Sequence (P09958 whole entry): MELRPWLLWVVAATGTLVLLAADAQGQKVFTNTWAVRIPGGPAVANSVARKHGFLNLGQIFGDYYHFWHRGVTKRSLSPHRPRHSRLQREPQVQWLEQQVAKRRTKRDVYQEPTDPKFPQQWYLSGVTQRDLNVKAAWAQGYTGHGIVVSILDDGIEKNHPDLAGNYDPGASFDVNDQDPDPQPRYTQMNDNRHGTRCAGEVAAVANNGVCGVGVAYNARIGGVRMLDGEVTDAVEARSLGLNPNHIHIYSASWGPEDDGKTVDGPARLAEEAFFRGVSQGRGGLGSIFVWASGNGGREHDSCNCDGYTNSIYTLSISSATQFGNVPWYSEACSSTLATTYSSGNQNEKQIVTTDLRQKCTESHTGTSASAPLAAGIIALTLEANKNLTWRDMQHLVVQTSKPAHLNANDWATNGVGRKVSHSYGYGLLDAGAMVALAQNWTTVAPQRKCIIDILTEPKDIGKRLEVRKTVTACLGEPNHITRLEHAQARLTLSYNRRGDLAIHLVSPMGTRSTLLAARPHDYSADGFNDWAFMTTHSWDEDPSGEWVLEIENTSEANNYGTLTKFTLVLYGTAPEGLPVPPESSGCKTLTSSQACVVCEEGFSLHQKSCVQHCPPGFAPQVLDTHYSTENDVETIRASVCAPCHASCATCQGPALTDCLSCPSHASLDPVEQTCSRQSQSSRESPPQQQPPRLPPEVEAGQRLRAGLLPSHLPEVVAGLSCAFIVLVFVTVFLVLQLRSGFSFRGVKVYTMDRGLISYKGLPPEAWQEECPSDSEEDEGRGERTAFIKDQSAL
Some of the results follow. How many sequences the whole screen found active is unknown.
# furin cleavage Z-score binned as low range: < -0.7; mid range: ≥ -0.7 and < 4; high range: ≥ 4

Recorded results for 6 sequences are shown here.
>>> df
                 query_sequence       label
0   CAEPVTSTWVAGNASASA [HC2179]   low range
1  CARSKKPKGLAGNASASA [FS-3082]   low range
2   CATKPCSGSWAGNASASA [HC1854]   mid range
3  CAARARLPRDAGNASASA [FS-1185]  high range
4  CAARPRRARQAGNASASA [FS-1585]  high range
5    CANSSPPVVPAGNASASA [HC767]   mid range

For this sequence, which bin applies? CALKGRPARFAGNASASA [FS-1135]
mid range

For this sequence, which bin applies? CAARARLGRQAGNASASA [FS-400]
high range

For this sequence, which bin applies? CAVLVLNPSVAGNASASA [HC786]
low range

For this sequence, which bin applies? CARSKRPSTDAGNASASA [FS-2606]
mid range

For this sequence, which bin applies? CAQLFTFSPRAGNASASA [HC305]
mid range

For this sequence, which bin applies? CAIASWAIKWAGNASASA [HC515]
mid range
